# Tested on: OV90
# Test Details: Primary qHTS to identify gynecologic anti-cancer compounds using libraries of approved drugs and bioactive compounds (AID 1345084); also: potency is read from the fitted curve at half-maximal effect; nearly all actives have a fitted effect of over 55% in size
# Setup Conditions: Gynecologic cancer cell panel viability, ATPlite luminescence, 48 h; series mostly up to 57.5 µM
Records with an inconclusive call do not appear. Activity calls are given as the source filed them. Calls follow the shape of the dose curve; as a rule, active = well fitted cell-killing curve with a large enough effect; inconclusive = small, poorly fitted or top-dose-only effect, or effect the other way; inactive = flat fitted curve, though single readings scatter.
The entries below are paired with their reported Potency.
Measurement Name: Potency

Molecule: COc1c/c(=C2\C=c3ccccc3=N2)[nH]/c1=C\c1[nH]c(C)cc1C
Experimental Value: 2.24 µM (active)
//
Molecule: CN(C)c1nc(NC2CCC(NC(=O)c3ccc(F)c(F)c3)CC2)nc2ccccc12 (centres undefined)
Experimental Value: 11.2 µM (active)
//
Molecule: CCC(C)C(=O)OC1CC(O)C23C4OCC5(C(O)CC2C1(C)C(O)O4)C3C(=O)C(O)C1(C)C(O)(c2ccoc2)CC2OC251 (centres undefined)
Experimental Value: 1.26 µM (active)
//
Molecule: COc1ccc(C[C@H](N)C(=O)N[C@@H]2[C@H](O)[C@H](n3cnc4c(N(C)C)ncnc43)O[C@@H]2CO)cc1
Experimental Value: 7.94 µM (active)
